Test system: PCSK9 mRNA
assay-summary: qRT-PCR of PCSK9 mRNA in primary hepatocytes
Type: cell-based, human
run-conditions: donor 4178, 3 μM, relative to GUSB
property: Primary Hepatocytes 4178 PCSK9 (fold change in mRNA expression)

{"compound": "CNC(=O)c1cccc(-c2ccc3c(N4CCOC[C@@H]4C)nc(N4CCOC[C@@H]4C)nc3n2)c1 [AZD2014]", "assay-system": "PCSK9 mRNA", "result-value": 0.36}
{"compound": "COc1ccc(-c2ccc3c(N4CCOC[C@@H]4C)nc(N4CCOC[C@@H]4C)nc3n2)cc1CO [AZD-8055]", "assay-system": "PCSK9 mRNA", "result-value": 0.68}
{"compound": "Nc1nc(N)c2nc(-c3cccc(O)c3)c(-c3cccc(O)c3)nc2n1 [TG100-115]", "assay-system": "PCSK9 mRNA", "result-value": 0.69}

(A) COc1ncc(-c2ccc3nccc(-c4ccnnc4)c3c2)cc1NS(=O)(=O)c1ccc(F)cc1F [GSK2126458]
(B) Cc1nc(-c2cn3c(n2)-c2ccc(-c4cnn(C(C)(C)C(N)=O)c4)cc2OCC3)n(C(C)C)n1 [GDC-0032]
Determine, for A and B , which has the greater value of Primary Hepatocytes 4178 PCSK9 (fold change in mRNA expression). // caller expects the label of the chosen entry A

(I) C[C@@H](Nc1cc(F)cc(F)c1)c1cc(C(=O)N(C)C)cc2c(=O)cc(N3CCOCC3)oc12 [AZD8186]
(II) CNC(=O)Nc1ccc(-c2nc(N3CC4CCC(C3)O4)c3cnn(C4CCC5(CC4)OCCO5)c3n2)cc1 [WYE-125132]
Between I and II , which one shows the smaller Primary Hepatocytes 4178 PCSK9 (fold change in mRNA expression) number? // caller expects the label of the chosen entry II
(II: 0.43, I: 0.70)

###

System: PNPLA3 mRNA
assay-summary: qRT-PCR of PNPLA3 mRNA in compound-treated primary human hepatocytes
run-conditions: donor 4178, 3 μM, relative to GUSB
Structures can show the parent of a compound that is named as a salt.
property: Primary Hepatocytes 4178 PNPLA3 (fold change in mRNA expression)

// below: answered compounds
{"compound": "Cc1nc(NC(=O)N2CCC[C@H]2C(N)=O)sc1-c1ccnc(C(C)(C)C(F)(F)F)c1 [BYL-719]", "assay-system": "PNPLA3 mRNA", "result-value": 0.69}
{"compound": "CO[C@H]1C[C@@H]2CC[C@@H](C)[C@@](O)(O2)C(=O)C(=O)N2CCCC[C@H]2C(=O)O[C@H]([C@H](C)C[C@@H]2CC[C@@H](O)[C@H](OC)C2)CC(=O)[C@H](C)/C=C(\\C)[C@@H](O)[C@@H](OC)C(=O)[C@H](C)C[C@H](C)/C=C/C=C/C=C/1C [rapamycin]", "assay-system": "PNPLA3 mRNA", "result-value": 1.50}
{"compound": "Nc1cc(C(F)(F)F)c(-c2cc(N3CCOCC3)nc(N3CCOCC3)n2)cn1 [NVP-BKM120 (Hydrochloride)]", "assay-system": "PNPLA3 mRNA", "result-value": 0.56}
{"compound": "COc1cccc2cc(-c3nc([C@H]4CC[C@H](C(=O)O)CC4)n4ncnc(N)c34)[nH]c12 [OSI-027]", "assay-system": "PNPLA3 mRNA", "result-value": 0.60}

(P) CNC(=O)c1cccc(-c2ccc3c(N4CCOC[C@@H]4C)nc(N4CCOC[C@@H]4C)nc3n2)c1 [AZD2014]
(Q) COc1ncc(-c2ccc3nccc(-c4ccnnc4)c3c2)cc1NS(=O)(=O)c1ccc(F)cc1F [GSK2126458]
Between P and Q , which one shows the smaller Primary Hepatocytes 4178 PNPLA3 (fold change in mRNA expression) number? // caller expects the label of the chosen entry P
(P: 0.43, Q: 0.92)
